From: PubChem BioAssay

- system-name: Neurogenic locus notch homolog protein 3 (Homo sapiens) (UniProt Q9UM47)
- Sequence (Q9UM47 whole entry, looked up): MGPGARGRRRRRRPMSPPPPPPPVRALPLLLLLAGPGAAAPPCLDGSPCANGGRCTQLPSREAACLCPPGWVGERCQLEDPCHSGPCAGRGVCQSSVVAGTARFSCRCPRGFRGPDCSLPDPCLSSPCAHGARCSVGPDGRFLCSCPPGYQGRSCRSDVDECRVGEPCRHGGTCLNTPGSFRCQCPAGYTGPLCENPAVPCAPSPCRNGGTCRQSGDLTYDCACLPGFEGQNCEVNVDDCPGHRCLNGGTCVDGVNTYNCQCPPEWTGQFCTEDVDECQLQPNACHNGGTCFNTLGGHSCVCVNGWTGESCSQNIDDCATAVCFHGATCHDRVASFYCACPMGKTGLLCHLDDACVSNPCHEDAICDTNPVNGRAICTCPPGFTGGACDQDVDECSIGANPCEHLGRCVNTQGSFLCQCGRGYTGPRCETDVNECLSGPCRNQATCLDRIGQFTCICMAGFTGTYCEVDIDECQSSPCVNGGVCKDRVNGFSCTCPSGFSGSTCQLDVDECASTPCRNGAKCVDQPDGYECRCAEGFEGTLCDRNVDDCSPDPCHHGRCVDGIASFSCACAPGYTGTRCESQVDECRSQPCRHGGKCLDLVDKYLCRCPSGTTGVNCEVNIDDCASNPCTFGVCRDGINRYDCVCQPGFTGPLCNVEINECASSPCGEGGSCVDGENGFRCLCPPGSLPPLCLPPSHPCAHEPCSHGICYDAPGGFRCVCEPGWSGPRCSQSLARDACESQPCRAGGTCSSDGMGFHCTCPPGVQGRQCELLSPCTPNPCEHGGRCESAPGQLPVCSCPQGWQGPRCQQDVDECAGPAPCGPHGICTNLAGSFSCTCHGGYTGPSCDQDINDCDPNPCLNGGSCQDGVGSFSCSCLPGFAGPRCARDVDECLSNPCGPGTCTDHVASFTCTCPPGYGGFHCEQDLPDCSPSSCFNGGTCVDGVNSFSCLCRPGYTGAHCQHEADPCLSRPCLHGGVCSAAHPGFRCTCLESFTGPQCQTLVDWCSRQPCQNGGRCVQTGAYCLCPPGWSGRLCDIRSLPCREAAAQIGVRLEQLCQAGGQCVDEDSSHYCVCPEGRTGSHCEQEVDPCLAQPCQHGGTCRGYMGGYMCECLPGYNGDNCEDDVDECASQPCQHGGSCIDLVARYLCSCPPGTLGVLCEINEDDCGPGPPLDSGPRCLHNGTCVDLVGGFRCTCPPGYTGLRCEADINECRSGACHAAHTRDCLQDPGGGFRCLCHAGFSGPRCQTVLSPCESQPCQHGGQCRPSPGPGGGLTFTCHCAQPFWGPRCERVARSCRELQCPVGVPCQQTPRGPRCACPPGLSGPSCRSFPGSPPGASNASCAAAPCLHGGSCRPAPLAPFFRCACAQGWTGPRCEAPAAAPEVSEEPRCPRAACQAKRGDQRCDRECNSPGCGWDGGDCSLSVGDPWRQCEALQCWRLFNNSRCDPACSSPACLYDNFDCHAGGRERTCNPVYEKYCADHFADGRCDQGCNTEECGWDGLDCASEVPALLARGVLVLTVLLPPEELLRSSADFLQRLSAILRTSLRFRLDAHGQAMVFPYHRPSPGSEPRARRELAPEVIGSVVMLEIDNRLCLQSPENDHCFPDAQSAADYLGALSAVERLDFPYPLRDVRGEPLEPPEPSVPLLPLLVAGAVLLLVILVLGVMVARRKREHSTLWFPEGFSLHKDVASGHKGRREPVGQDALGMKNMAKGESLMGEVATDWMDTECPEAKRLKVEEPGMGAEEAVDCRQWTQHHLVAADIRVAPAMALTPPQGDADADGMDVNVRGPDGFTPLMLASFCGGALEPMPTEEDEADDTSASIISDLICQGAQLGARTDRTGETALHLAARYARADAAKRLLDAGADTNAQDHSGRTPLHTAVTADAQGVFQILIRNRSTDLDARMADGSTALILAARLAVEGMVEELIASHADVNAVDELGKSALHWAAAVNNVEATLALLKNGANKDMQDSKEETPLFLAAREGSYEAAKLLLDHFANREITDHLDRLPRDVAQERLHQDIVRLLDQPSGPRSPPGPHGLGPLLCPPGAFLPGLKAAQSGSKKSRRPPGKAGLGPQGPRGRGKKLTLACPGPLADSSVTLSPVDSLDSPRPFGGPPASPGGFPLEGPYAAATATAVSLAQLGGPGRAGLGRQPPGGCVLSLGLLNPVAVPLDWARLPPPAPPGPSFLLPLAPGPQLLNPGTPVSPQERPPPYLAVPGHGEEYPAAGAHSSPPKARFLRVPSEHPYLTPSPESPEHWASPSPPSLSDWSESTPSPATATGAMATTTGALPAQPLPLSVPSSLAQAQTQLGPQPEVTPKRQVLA
- test-summary: NOTCH3 binders on small-molecule microarray, primary screen, biochemical, 635/667 nm fluorescence (AID 1096)
- experimental-context: NOTCH3 binding, 635 nm fluorescence, higher = more signal
Hi there, I'd appreciate the recorded composite z-score for every entry that follows.
Response field accepts a number only; no unit should be typed.

Item C[C@@H](OCc1ccccc1)C1NC(=O)[C@@]23C(=O)N[C@@H](Cc4ccccc4)C2[C@H](C)[C@@]2(C)O[C@H]2C3/C=C/C/C=C\CNC(=O)[C@@H]2CCCN2C1=O (some centres not stated) has what recorded composite z-score? -0.665

Consider the compound shown here: "C=C(COC)C(=O)CC[C@H](OC(=O)c1cccnc1)c1cccc(OCCO)c1" What is its recorded composite z-score? 0.176

Field request: composite z-score | item: "COc1ccc([Si](C)(C)[C@H]2[C@H](CC(=O)N3Cc4ccccc4C[C@H]3CO)O[C@@]3(C(=O)N(Cc4cccc(N5C(=O)COc6ccccc65)c4)c4ccccc43)[C@@H]2C)cc1" 1.11

Can you look up the measured composite z-score of "COCCCN1C(=O)[C@@]2(Cc3ccccc31)c1ccccc1C(=O)N(Cc1ccccc1Cl)[C@H]2c1ccc(CO)cc1" for me? -0.435

Given the entry "COCCOC(=O)N1C(=O)[C@@]2(c3cc(C#CC4(O)CCCCCC4)ccc31)[C@H](c1ccccc1OCCO)N1[C@H](c3ccccc3)[C@H](c3ccccc3)OC(=O)[C@H]1[C@@H]2C(=O)Nc1nc2ccccc2s1" , report its measured composite z-score. 1.09

// query composite z-score value for entry C=CCC(OC(C)=O)[C@@H]1[C@@H](N(Cc2ccc(-c3cccc(C(F)(F)F)c3)o2)C(=O)c2ccc(-c3ccccc3)cc2)c2cc(OCCCO)ccc2N1C(=O)Cc1ccc(OC)cc1 (some centres not stated) -1.16

Reported composite z-score for "O=C(N1CCCCC1)[C@@]1(Cc2ccccc2)N=C(c2ccc(OCCCO)cc2)O[C@H]1c1ccccc1" : what is it? 0.966
